Listed here are compounds together with their documented inhibition.
Target: 5-hydroxytryptamine receptor 7 (Rattus norvegicus) (UniProt P32305)
Sequence (P32305 whole entry): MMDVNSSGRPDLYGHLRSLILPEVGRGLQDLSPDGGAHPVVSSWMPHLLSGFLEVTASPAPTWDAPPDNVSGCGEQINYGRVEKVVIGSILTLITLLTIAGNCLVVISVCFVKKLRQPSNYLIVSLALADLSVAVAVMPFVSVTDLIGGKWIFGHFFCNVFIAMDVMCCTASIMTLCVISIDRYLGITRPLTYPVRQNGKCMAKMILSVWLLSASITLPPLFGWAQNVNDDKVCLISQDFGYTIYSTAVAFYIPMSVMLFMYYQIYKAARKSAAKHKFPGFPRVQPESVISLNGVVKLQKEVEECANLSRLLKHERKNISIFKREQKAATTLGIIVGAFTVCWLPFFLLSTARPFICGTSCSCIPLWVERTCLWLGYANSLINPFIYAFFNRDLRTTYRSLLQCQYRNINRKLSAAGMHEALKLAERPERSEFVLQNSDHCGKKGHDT
Assay: Inhibition of the binding of [3H]LSD on rat 5-HT7R expressed in HEK293 cells at concentration of 10e-8 M
Format: cell-based
Please give a number only; it is taken to be in %.

-- ask In one line, give reported inhibition of the entry COc1ccccc1-n1cccc1CN1CCN(C)CC1 .
-- reply 0

-- ask In one line, give reported inhibition of the entry Cc1ccccc1-n1cccc1CN1CCN(c2noc3ccccc23)CC1 .
-- reply 0

-- ask In one line, give reported inhibition of the entry N#Cc1ccccc1-n1cccc1CN1CCN(c2noc3ccccc23)CC1 .
-- reply 1

-- ask In one line, give reported inhibition of the entry COc1ccccc1N1CCN(Cc2cccn2-c2ccccc2-c2ccccc2)CC1 .
-- reply 0

-- ask In one line, give reported inhibition of the entry COc1ccccc1N1CCN(Cc2cccn2-c2ccccc2OC)CC1 .
-- reply 16

API: the following record is the query input.
-- ask In one line, give reported inhibition of the entry COc1ccccc1N1CCN(Cc2cccn2-c2ccccc2C#N)CC1 .
-- reply 0

###

Listed here are compounds together with their documented inhibition.
Target: 5-hydroxytryptamine receptor 7 (Rattus norvegicus)
Assay: Inhibition of the binding of [3H]LSD on rat 5-HT7R in HEK293 cells at concentration of 10e-6 M
Type: cell-based
Please give a number only; it is taken to be in %.

-- ask Output reported inhibition of the compound COc1ccccc1N1CCN(Cc2ccn(-c3cccc(C)c3C)c2)CC1 on 5-hydroxytryptamine receptor 7 (Rattus norvegicus).
-- reply 91

-- ask Output reported inhibition of the compound Cc1ccccc1-n1ccc(CN2CCN(c3noc4ccccc34)CC2)c1 on 5-hydroxytryptamine receptor 7 (Rattus norvegicus).
-- reply 42

-- ask Output reported inhibition of the compound COc1ccccc1N1CCN(Cc2ccn(-c3c(C)cc(C)cc3C)c2)CC1 on 5-hydroxytryptamine receptor 7 (Rattus norvegicus).
-- reply 32

-- ask Output reported inhibition of the compound COc1ccccc1N1CCN(Cc2ccn(-c3ccccc3C)c2)CC1 on 5-hydroxytryptamine receptor 7 (Rattus norvegicus).
-- reply 95

-- ask Output reported inhibition of the compound COc1ccccc1N1CCN(Cc2ccn(-c3ccccc3C(F)(F)F)c2)CC1 on 5-hydroxytryptamine receptor 7 (Rattus norvegicus).
-- reply 91

-- ask Output reported inhibition of the compound COc1ccccc1N1CCN(Cc2ccn(-c3ccccc3OC)c2)CC1 on 5-hydroxytryptamine receptor 7 (Rattus norvegicus).
-- reply 6

###

Biological target: 5-hydroxytryptamine receptor 7 (Rattus norvegicus) (UniProt P32305)
Experiment: Inhibition of the binding of [3H]LSD on rat 5-HT7R expressed in HEK293 cells at concentration of 10e-6 M
Type: cell-based
inhibition below 40% gives NOT MET; inhibition at or above it gives MET.

Field: example entries. Status: answers known.
-- ask Quick check: does Cc1ccccc1-n1cccc1CN1CCN(c2noc3ccccc23)CC1 have inhibition greater than or equal to 40%?
-- reply MET

-- ask Quick check: does COc1ccccc1N1CCN(Cc2cccn2-c2ccccc2-c2ccccc2)CC1 have inhibition greater than or equal to 40%?
-- reply NOT MET

Continuing:
-- ask Quick check: does N#Cc1ccccc1-n1cccc1CN1CCN(c2noc3ccccc23)CC1 have inhibition greater than or equal to 40%?
-- reply MET

-- ask Quick check: does COc1ccccc1N1CCN(Cc2cccn2-c2ccccc2OC)CC1 have inhibition greater than or equal to 40%?
-- reply MET

###

Target: 5-hydroxytryptamine receptor 7 (Homo sapiens)
Experiment: Inhibition of the binding of [3H]LSD on human 5-HT7R expressed in sf9 cells at concentration of 10e-8 M
Listed here are compounds together with their documented inhibition.
Please give a number only; it is taken to be in %.

-- ask In one line, give reported inhibition of the entry NCCc1cccn1-c1ccccc1Cl .
-- reply 0

-- ask In one line, give reported inhibition of the entry CCOc1ccc(OCC)c(-n2cccc2CCN)c1 .
-- reply 0

-- ask In one line, give reported inhibition of the entry COc1ccc(-n2cccc2CCN)cc1 .
-- reply 3

-- ask In one line, give reported inhibition of the entry NCCc1cccn1-c1ccccc1 .
-- reply 0

-- ask In one line, give reported inhibition of the entry COc1ccc(OC)c(-n2cccc2CCN)c1 .
-- reply 6

-- ask In one line, give reported inhibition of the entry COc1ccccc1N1CCN(Cc2cccn2-c2ccc(Cl)cc2Cl)CC1 .
-- reply 0

-- ask In one line, give reported inhibition of the entry Cc1cccc(-n2cccc2CCN)c1C .
-- reply 0

-- ask In one line, give reported inhibition of the entry c1ccc(N2CCN(Cc3cccn3-c3ccccc3)CC2)cc1 .
-- reply 14

-- ask In one line, give reported inhibition of the entry COc1ccccc1N1CCN(Cc2cccn2-c2ccccc2)CC1 .
-- reply 0

###

Listed here are compounds together with their documented inhibition.
Target: 5-hydroxytryptamine receptor 7 (Homo sapiens, UniProt P34969)
Sequence (P34969 whole entry): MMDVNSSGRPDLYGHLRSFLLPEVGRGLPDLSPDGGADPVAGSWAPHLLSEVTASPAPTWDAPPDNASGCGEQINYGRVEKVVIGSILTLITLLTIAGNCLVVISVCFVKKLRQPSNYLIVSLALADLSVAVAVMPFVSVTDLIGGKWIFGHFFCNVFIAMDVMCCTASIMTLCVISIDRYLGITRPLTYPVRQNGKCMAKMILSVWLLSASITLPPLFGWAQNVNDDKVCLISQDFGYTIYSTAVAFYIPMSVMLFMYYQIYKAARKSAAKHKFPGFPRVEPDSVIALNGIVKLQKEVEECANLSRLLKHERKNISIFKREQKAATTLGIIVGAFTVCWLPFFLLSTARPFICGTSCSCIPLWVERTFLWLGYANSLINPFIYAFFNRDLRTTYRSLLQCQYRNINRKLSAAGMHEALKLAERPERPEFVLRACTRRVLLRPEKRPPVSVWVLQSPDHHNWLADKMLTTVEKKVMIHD
Test: Inhibition of the binding of [3H]LSD on human 5-HT7R expressed in sf9 cells at concentration of 10e-6 M
Please give a number only; it is taken to be in %.

-- ask In one line, give reported inhibition of the entry CCOc1ccc(OCC)c(-n2cccc2CCN)c1 .
-- reply 14

-- ask In one line, give reported inhibition of the entry NCCc1cccn1-c1ccccc1Cl .
-- reply 58

-- ask In one line, give reported inhibition of the entry COc1ccc(-n2cccc2CCN)cc1 .
-- reply 36

-- ask In one line, give reported inhibition of the entry COc1ccc(OC)c(-n2cccc2CCN)c1 .
-- reply 31

-- ask In one line, give reported inhibition of the entry COc1ccccc1N1CCN(Cc2cccn2-c2ccccc2)CC1 .
-- reply 91

-- ask In one line, give reported inhibition of the entry Cc1cccc(-n2cccc2CCN)c1C .
-- reply 72

-- ask In one line, give reported inhibition of the entry COc1ccccc1N1CCN(Cc2cccn2-c2ccc(Cl)cc2Cl)CC1 .
-- reply 66

-- ask In one line, give reported inhibition of the entry c1ccc(N2CCN(Cc3cccn3-c3ccccc3)CC2)cc1 .
-- reply 71

API: the following record is the query input.
-- ask In one line, give reported inhibition of the entry NCCc1cccn1-c1ccccc1 .
-- reply 31

###

Target: 5-hydroxytryptamine receptor 7 (Rattus norvegicus, UniProt P32305)
Experiment: Binding affinity against rat 5-HT7R expressed in HEK293 cells
Assay type: cell-based
VALUE_KIND: pKi
Conceptually, pKi converts a concentration in mol/L into minus its log10.

-- ask In one line, give reported pKi of the entry COc1ccccc1N1CCN(Cc2ccn(-c3ccccc3C)c2)CC1 .
-- reply 7.68

###

Target: 5-hydroxytryptamine receptor 7 (Rattus norvegicus) (UniProt P32305)
Assay: Inhibition of the binding of [3H]LSD on rat 5-HT7R in HEK293 cells at concentration of 10e-8 M
Format: cell-based
inhibition below 6% gives Condition not met; inhibition at or above it gives Condition met.

-- ask Quick check: does N#Cc1ccccc1-n1ccc(CN2CCN(c3noc4ccccc34)CC2)c1 have inhibition greater than or equal to 6%?
-- reply Condition met

-- ask Quick check: does COc1ccccc1N1CCN(Cc2ccn(-c3c(C)cc(C)cc3C)c2)CC1 have inhibition greater than or equal to 6%?
-- reply Condition not met

-- ask Quick check: does COc1ccccc1N1CCN(Cc2ccn(-c3ccccc3C)c2)CC1 have inhibition greater than or equal to 6%?
-- reply Condition met

Continuing:
-- ask Quick check: does COc1ccccc1N1CCN(Cc2ccn(-c3cccc(C)c3C)c2)CC1 have inhibition greater than or equal to 6%?
-- reply Condition not met

-- ask Quick check: does COc1ccccc1N1CCN(Cc2ccn(-c3ccccc3C#N)c2)CC1 have inhibition greater than or equal to 6%?
-- reply Condition met

-- ask Quick check: does Cc1ccccc1-n1ccc(CN2CCN(c3noc4ccccc34)CC2)c1 have inhibition greater than or equal to 6%?
-- reply Condition met

-- ask Quick check: does COc1ccccc1N1CCN(Cc2ccn(-c3ccccc3C(F)(F)F)c2)CC1 have inhibition greater than or equal to 6%?
-- reply Condition met

-- ask Quick check: does COc1ccccc1N1CCN(Cc2ccn(-c3ccccc3OC)c2)CC1 have inhibition greater than or equal to 6%?
-- reply Condition not met

###

Molecular target: 5-hydroxytryptamine receptor 7 (Rattus norvegicus)
Assay: Inhibition of the binding of [3H]LSD on rat 5-HT7R in HEK293 cells at concentration of 10e-6 M
Format: cell-based
VALUE_KIND: inhibition
Respond with a number, then the unit of measure.

-- ask In one line, give reported inhibition of the entry COc1ccccc1N1CCN(Cc2ccn(-c3ccccc3C#N)c2)CC1 .
-- reply 96%

-- ask In one line, give reported inhibition of the entry N#Cc1ccccc1-n1ccc(CN2CCN(c3noc4ccccc34)CC2)c1 .
-- reply 34%

-- ask In one line, give reported inhibition of the entry COc1ccccc1N1CCN(Cc2ccn(-c3cccc4ccccc34)c2)CC1 .
-- reply 86%

###

Listed here are compounds together with their documented pKi.
Target: 5-hydroxytryptamine receptor 7 (Homo sapiens, UniProt P34969)
Conceptually, pKi converts a concentration in mol/L into minus its log10.

-- ask In one line, give reported pKi of the entry COc1ccccc1N1CCN(Cc2ccn(-c3ccccc3C#N)c2)CC1 .
-- reply 8.27

Continuing:
-- ask In one line, give reported pKi of the entry COc1ccccc1N1CCN(Cc2ccn(-c3ccccc3C)c2)CC1 .
-- reply 8.33
